Give Inhibition for every item shown.
- System: Plasmodium falciparum
- measurement.protocol: GSK_TCMDC: Inhibition of Plasmodium falciparum Dd2 in whole red blood cells, using parasite LDH activity as an index of growth. Test compounds present at 2uM
- Assay type: functional
The figure you give is taken to be in %; do not add the unit.

Tested system Plasmodium falciparum; Inhibition recorded for C=CCc1ccccc1OCC(O)CN(C1CCCCC1)C1CCCCC1.Cl (stereo not given) was 84

The observed Inhibition for CN1CCN(c2ccnc3cc4c(cc23)N(C(=O)Nc2ccc(-c3ccncc3)c3ccccc23)CC4)CC1.Cl when tested with Plasmodium falciparum stands at 97

Lab note: molecule CC(=O)Nc1ccc(S(=O)(=O)Nc2ccc(Nc3nc(C)cc(N4CCCCC4)n3)cc2)cc1 tested on Plasmodium falciparum; recorded Inhibition was 54

# value of Inhibition, Plasmodium falciparum, item O=C(NCc1ccccc1)C1Cc2c([nH]c3ccc(Br)cc23)C2(CCN(Cc3ccccc3)CC2)N1 (stereo not given) = 70

Item c1ccc2cc3c(Nc4ccc(N5CCCCC5)cc4)ccnc3cc2c1 ; assay system Plasmodium falciparum; Inhibition reported as 36

With Plasmodium falciparum as the test system, Cn1c(Nc2nnc(C3CC3)s2)nc2cc(Nc3ccnc(Nc4cccc(CS(C)(=O)=O)c4)n3)ccc21 showed Inhibition of 83

The recorded Inhibition with Plasmodium falciparum for CC(C)Sc1nc2c(c(=O)n1CCc1ccccc1)C1(CCCCC1)Cc1ccccc1-2 was 5

Reported Inhibition (Plasmodium falciparum) for entry CCOC(=O)c1c(NC(=O)c2ccccc2)sc2c(O)c(CNC3CCCCC3)ccc12 is 98

Tested system Plasmodium falciparum; Inhibition recorded for O=C(Nc1ccc2ccccc2c1)N1CCC(NCc2cccc([N+](=O)[O-])c2)CC1.O=C(O)C(F)(F)F was 0

GET /values?item= CC(C)c1ccc(N(CC(=O)N/N=C/c2ccc(C(F)(F)F)cc2)S(=O)(=O)c2ccc(C(F)(F)F)cc2)cc1 &system= Plasmodium falciparum returns Inhibition: 44

Summary: O=C(NCc1ccc(C(=O)NC2CCCCCC2)cc1)c1ccc(O)c(-c2ccc(Cl)c(Cl)c2)c1 , Plasmodium falciparum, Inhibition = 21

Kindly note: Plasmodium falciparum, Cc1[nH]c(C)c(-c2ccc(Oc3cccc(Cl)c3)cc2)c(=O)c1Br , Inhibition value reported: 97

The molecule CSc1ccc2nccc(Nc3ccc(Oc4ccccc4)cc3)c2c1.Cl , when measured on Plasmodium falciparum, yielded Inhibition of 68

Form field Inhibition for item COc1ccc(OC)c2c1CC1NCC2c2c(OC)ccc(OC)c21.Cl (stereo not given) on Plasmodium falciparum: 3

Plasmodium falciparum data for COc1ccc(NC(=O)Nc2cccc(-c3cccc(-c4nc5cc(F)ccc5[nH]4)c3)c2)cc1 ; its Inhibition: 39

Lab entry: Plasmodium falciparum assay, molecule Fc1ccccc1-c1cc(Nc2ccncc2)nc(-c2cccnc2)n1 , Inhibition = 89

Readout Inhibition for Cc1cccc(CNc2nc(C)cc(N[C@@H](Cc3ccccc3)C(=O)NC3CCCC3)n2)c1.O=C(O)C(F)(F)F , test system Plasmodium falciparum, was 97

Fill in: Plasmodium falciparum Inhibition for CCCCN1CCN(CC(O)CNC(=O)Nc2ccc(Cl)cc2)CC1.O=C(O)C(F)(F)F (stereo not given) = 99

The value of Inhibition recorded for CS(=O)(=O)c1ccc(CCNCc2ccc(-c3ccc(CN(C(=O)c4ccc(Cl)nc4)C4CCN(Cc5ccccc5)CC4)cc3)nc2)cc1.O=C(O)C(F)(F)F when tested on Plasmodium falciparum reads 70

Plasmodium falciparum Inhibition of COc1cc(Cc2cnc(N)nc2N)cc(OCCCCC2SC(=O)NC2=O)c1Br (stereo not given) is 0
